Tested on: Acinetobacter pittii
measurement.description: Antibacterial activity against Acinetobacter genomosp. 3 isolate 14 by Etest method
Type: functional
Residues, ends and D or L forms follow the SMILES beside them. *: point of attachment. βNA = c1ccc2cc(N*)ccc2c1
# label = YES if MIC < 20 µg/mL else NO

• CO/N=C(\C(=O)N[C@@H]1C(=O)N2C(C(=O)O)=C(COC(N)=O)CS[C@H]12)c1ccco1 = NO
• CC(=O)OCC1=C(C(=O)O)N2C(=O)[C@@H](NC(=O)Cc3cccs3)[C@H]2SC1 = NO
• Cl.Cl.N=C(N)NCCC[C@H](NC(=O)[C@@H](N)Cc1ccccc1)C(=O)Nc1ccc2ccccc2c1 (H-Phe-Arg-βNA) = NO
• CC(C)(O/N=C(\C(=O)N[C@@H]1C(=O)N2C(C(=O)[O-])=C(C[n+]3ccccc3)CS[C@H]12)c1csc(N)n1)C(=O)O = YES
• CO/N=C(\C(=O)N[C@@H]1C(=O)N2C(C(=O)[O-])=C(C[N+]3(C)CCCC3)CS[C@H]12)c1csc(N)n1 = YES
• Cc1onc(-c2ccccc2Cl)c1C(=O)N[C@@H]1C(=O)N2[C@@H]1SC(C)(C)[C@@H]2C(=O)O = NO
• CO[C@@]1(NC(=O)Cc2cccs2)C(=O)N2C(C(=O)O)=C(COC(N)=O)CS[C@@H]21 = NO
• CCN1CCN(C(=O)N[C@@H](C(=O)N[C@@H]2C(=O)N3[C@@H]2SC(C)(C)[C@@H]3C(=O)O)c2ccccc2)C(=O)C1=O = YES
• C[C@@H](O)[C@H]1C(=O)N2C(C(=O)O)=C(SCCNC=N)C[C@H]12 [IMIPENEM ANHYDROUS] = YES
• CO/N=C(\C(=O)N[C@@H]1C(=O)N2C(C(=O)O)=C(COC(C)=O)CS[C@H]12)c1csc(N)n1 = NO
• C[C@@H](O)[C@H]1C(=O)N2C(C(=O)O)=C(S[C@@H]3CN[C@H](C(=O)N(C)C)C3)[C@H](C)[C@H]12 = YES

###

Tested on: Acinetobacter pittii
measurement.description: Antibacterial activity against Acinetobacter genomosp. 3 isolate 56 by Etest method
Assay type: functional
Let's look at some molecules and their measured log10(MIC).
quantity.measured: log10(MIC) (log10 of the value in µg/mL)

• CC(C)(O/N=C(\C(=O)N[C@@H]1C(=O)N2C(C(=O)[O-])=C(C[n+]3ccccc3)CS[C@H]12)c1csc(N)n1)C(=O)O = 0.18
• Cc1onc(-c2ccccc2Cl)c1C(=O)N[C@@H]1C(=O)N2[C@@H]1SC(C)(C)[C@@H]2C(=O)O = 2.71
• CO[C@@]1(NC(=O)Cc2cccs2)C(=O)N2C(C(=O)O)=C(COC(N)=O)CS[C@@H]21 = 1.81
• C[C@@H](O)[C@H]1C(=O)N2C(C(=O)O)=C(S[C@@H]3CN[C@H](C(=O)N(C)C)C3)[C@H](C)[C@H]12 = -0.42
• CO/N=C(\C(=O)N[C@@H]1C(=O)N2C(C(=O)O)=C(COC(N)=O)CS[C@H]12)c1ccco1 = 1.20

###

Test system: Acinetobacter pittii
measurement.description: Antibacterial activity against Acinetobacter genomosp. 3 isolate 67 by Etest method
Assay type: functional
Residues, ends and D or L forms follow the SMILES beside them. *: point of attachment. βNA = c1ccc2cc(N*)ccc2c1
quantity.measured: MIC (µg/mL)

* CO/N=C(\C(=O)N[C@@H]1C(=O)N2C(C(=O)[O-])=C(C[N+]3(C)CCCC3)CS[C@H]12)c1csc(N)n1 | 4
* Cl.Cl.N=C(N)NCCC[C@H](NC(=O)[C@@H](N)Cc1ccccc1)C(=O)Nc1ccc2ccccc2c1 (H-Phe-Arg-βNA) | 400
* CC(C)(O/N=C(\C(=O)N[C@@H]1C(=O)N2C(C(=O)[O-])=C(C[n+]3ccccc3)CS[C@H]12)c1csc(N)n1)C(=O)O [CEFTAZIDIME] | 3
* CO/N=C(\C(=O)N[C@@H]1C(=O)N2C(C(=O)O)=C(COC(C)=O)CS[C@H]12)c1csc(N)n1 [CEFOTAXIME] | 16

Ref: ChEMBL document CHEMBL1649124
